TESTED_ON: HLA-DRB1*01:01 (Homo sapiens, UniProt P01903+P01911, A100R/D57E/F55L/F60I/F76Y/I96L/L162R/M171V/P40L/Q125E/R42F/V115G/Y59C)
Construct: EBV transformed homozygous cell lines were used as sources of MHC molecules; endogenous in cells; host or cells: EBV transformed homozygous cell lines
PROCEDURE_DETAILS: HLA class II peptide binding, inhibition of radiolabeled peptide binding to purified MHC
CONDITION_LABEL: citrullinated 15-mer peptide (X = citrulline); purified HLA-DRB1*01:01; read-out: DRB1*01:01 binding capacity, Cit peptide (IC50 nM)
Square brackets hold non-standard residues; d marks the D form. Peptide text beside a SMILES is read from it. Cit = NC(=O)NCCC[C@H](N)C(=O)O
Attribute: IC50
Response body: numeric value in nM, unit text excluded.

[
  {
    "COMPOUND": "CC(C)C[C@H](NC(=O)CNC(=O)[C@H](CCCNC(N)=O)NC(=O)[C@H](C)NC(=O)CNC(=O)[C@@H]1CCCN1C(=O)[C@@H](N)CC(C)C)C(=O)N[C@H](C(=O)NCC(=O)N[C@@H](CCCNC(=N)N)C(=O)N1CCC[C@H]1C(=O)NCC(=O)N[C@@H](CC(=O)O)C(=O)N[C@@H](C)C(=O)NCC(=O)O)[C@@H](C)O [LPGAXGLTGRPGDAG] (H-LPGA[Cit]GLTGRPGDAG-OH)",
    "EXPERIMENTAL_ENDPOINT": "IC50",
    "READING": 2930
  }
]

Q: Entry under review: CC[C@H](C)[C@H](NC(=O)CN)C(=O)N[C@@H](C)C(=O)NCC(=O)N[C@@H](C)C(=O)N1CCC[C@H]1C(=O)NCC(=O)N[C@@H](Cc1ccccc1)C(=O)N1CCC[C@H]1C(=O)NCC(=O)N1CCC[C@H]1C(=O)N[C@@H](CCCNC(N)=O)C(=O)NCC(=O)N1CCC[C@H]1C(=O)N1CCC[C@H]1C(=O)O [GIAGAPGFPGPXGPP] (H-GIAGAPGFPGP[Cit]GPP-OH) . Reported IC50?
Ans: 565

###

TESTED_ON: HLA-DRB1*04:01 (Homo sapiens, UniProt P01903+P01911, A100K/A169T/F76Y/I96L/K127E/L162R/M171V/N62H/P40V/Q125Y/R42H/S133A/S149N/S66Y/V115G/V209L/W38E)
Construct: EBV transformed homozygous cell lines were used as sources of MHC molecules; endogenous in cells; host or cells: EBV transformed homozygous cell lines
PROCEDURE_DETAILS: HLA class II peptide binding, inhibition of radiolabeled peptide binding to purified MHC
CONDITION_LABEL: citrullinated 15-mer (X); purified MHC, inhibition of radiolabeled peptide binding; dash = IC50 >40,000 nM; read-out: DRB1*04:01 binding capacity, Cit peptide (IC50 nM)
Square brackets hold non-standard residues; d marks the D form. Peptide text beside a SMILES is read from it. Cit = NC(=O)NCCC[C@H](N)C(=O)O
EXPERIMENTAL_ENDPOINT: IC50 (nM)
Response body: numeric value in nM, unit text excluded.

Q: Entry under review: CC(C)C[C@H](NC(=O)[C@H](CC(C)C)NC(=O)[C@H](CCCNC(=N)N)NC(=O)[C@@H](NC(=O)CNC(=O)[C@@H]1CCCN1C(=O)[C@@H](NC(=O)[C@H](CO)NC(=O)[C@H](CO)NC(=O)[C@H](CCCNC(N)=O)NC(=O)[C@H](CC(C)C)NC(=O)[C@H](CCCNC(=N)N)NC(=O)[C@@H](NC(=O)[C@H](C)NC(=O)[C@@H](N)CO)C(C)C)C(C)C)C(C)C)C(=O)O [SAVRLXSSVPGVRLL] (H-SAVRL[Cit]SSVPGVRLL-OH) . Reported IC50?
Ans: 11

Data provenance is paper PMC5421785.
